# target_or_test_system: D(3) dopamine receptor (Homo sapiens)
# Sequence (P35462 whole entry): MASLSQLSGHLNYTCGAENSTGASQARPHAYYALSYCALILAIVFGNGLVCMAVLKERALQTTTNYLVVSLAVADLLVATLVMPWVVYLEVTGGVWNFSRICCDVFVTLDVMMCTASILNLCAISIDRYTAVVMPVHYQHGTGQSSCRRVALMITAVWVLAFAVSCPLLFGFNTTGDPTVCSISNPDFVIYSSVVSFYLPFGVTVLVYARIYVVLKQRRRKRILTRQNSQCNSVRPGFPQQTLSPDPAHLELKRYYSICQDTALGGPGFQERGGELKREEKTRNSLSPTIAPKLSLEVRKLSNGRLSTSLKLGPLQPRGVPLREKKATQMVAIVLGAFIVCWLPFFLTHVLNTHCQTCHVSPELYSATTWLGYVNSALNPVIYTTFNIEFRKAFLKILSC
# protocol: Antagonist activity at human dopamine D3 receptor expressed in CHO-K1 cell membranes after 90 mins by [35S]GTP-gamma-S binding assay in presence of 3 nM quinelorane
readout: Ki (nM)
# output: bare number, implied unit nM

**Q:** What value of measured Ki is listed for Cc1ncoc1-c1nnc(SCCCN2CC3CCN(c4ccc(C(F)(F)F)cc4F)C3C2)n1C (stereo in doubt; 8b) ?
**A:** 1.58

* * *

# target_or_test_system: UniProt:P35462
# protocol: Displacement of [3H]-spiperone from human dopamine D3 receptor expressed in CHO-K1 cell membranes after 90 mins by liquid scintillation counter method
Readings of pKi for the listed compounds
pKi here: minus log base 10 of the concentration, concentration in moles per litre.

Examples with answers:
**Q:** What value of measured pKi is listed for CC(C)Oc1ccccc1N1CCC2CN(CCCSc3nnc(-c4cnccn4)n3C)CC21 (stereo in doubt; 35a) ?
**A:** 7.20

**Q:** What value of measured pKi is listed for Cn1c(SCCCN2CC3CCN(c4ccc(C(F)(F)F)cc4)C3C2)nnc1C1CCCCC1 (stereo in doubt; 65a) ?
**A:** 7.90

**Q:** What value of measured pKi is listed for Cc1ncoc1-c1nnc(SCCCN2CC3CCN(c4ccc(C(F)(F)F)cc4F)C3C2)n1C (racemic) ?
**A:** 8.70

**Q:** What value of measured pKi is listed for Cn1c(SCCCN2CC3CCN(c4ccc(C(F)(F)F)cc4)C3C2)nnc1-c1cccnn1 (racemic) ?
**A:** 7.30

**Q:** What value of measured pKi is listed for Cn1c(SCCCN2CC3CCN(c4ccc(F)cc4F)C3C2)nnc1-c1cnccn1 (stereo in doubt; 36b) ?
**A:** 8.40

**Q:** What value of measured pKi is listed for Cc1cc(-c2nnc(SCCCN3CC4CCN(c5ccc(C(F)(F)F)cc5)C4C3)n2C)on1 (racemic) ?
**A:** 8.60

**Q:** What value of measured pKi is listed for Cc1ncoc1-c1nnc(SCCCN2CC3CCN(c4ccc(Cl)cc4Cl)C3C2)n1C (racemic) ?
**A:** 8.30

**Q:** What value of measured pKi is listed for Cn1c(SCCCN2CC3CCN(c4ccc(F)cc4F)C3C2)nnc1-c1cnccn1 (stereo in doubt; 36a) ?
**A:** 8.00

---
**Q:** What value of measured pKi is listed for Cn1c(SCCCN2CC3CCN(c4ccc(C(F)(F)F)cc4)C3C2)nnc1-c1ccc(=O)n(C)c1 (racemic) ?
**A:** 8.20

**Q:** What value of measured pKi is listed for Cc1ncoc1-c1nnc(SCCCN2CC3CCN(c4cccc(C#N)c4)C3C2)n1C (stereo in doubt; 12b) ?
**A:** 8.20

**Q:** What value of measured pKi is listed for Cn1c(SCCCN2CC3CCN(c4ccccc4C(F)(F)F)C3C2)nnc1-c1ccncc1 (racemic) ?
**A:** 8.30

**Q:** What value of measured pKi is listed for Cn1c(SCCCN2CC3CCN(c4ccc(F)cc4)C3C2)nnc1-c1cnccn1 (racemic) ?
**A:** 8.70

**Q:** What value of measured pKi is listed for Cc1ncoc1-c1nnc(SCCCN2CC3CCN(c4ccc(C(F)(F)F)cc4F)C3C2)n1C (stereo in doubt; 8a) ?
**A:** 8.30

**Q:** What value of measured pKi is listed for Cn1c(SCCCN2CC3CCN(c4ccc(C(F)(F)F)cc4)C3C2)nnc1N1CCOCC1 (stereo in doubt; 61a) ?
**A:** 8.50

**Q:** What value of measured pKi is listed for Cc1ncoc1-c1nnc(SCCCN2CC3CCN(c4ccc(C(F)(F)F)cc4F)C3C2)n1C (stereo in doubt; 8b) ?
**A:** 8.90

**Q:** What value of measured pKi is listed for Cn1c(SCCCN2CC3CCN(c4ccccc4)C3C2)nnc1C1CCOCC1 (stereo in doubt; 62b) ?
**A:** 7.60
